All values here come from PubChem BioAssay (NCI).

Here, each record is paired with measured TGI data.
# Tested on: HOP-62 NSCLC
# experimental-details: NCI tumour cell line growth inhibition, 48 h

Please review the following examples before continuing.
COc1cc(NCc2ccccc2O)c2ncccc2c1    > 100 µM
COC(=O)NC(=O)c1cn(CCCOC(=O)CCCCCCCCC(=O)OCCCn2cc(C(=O)NC(=O)OC)c(=O)[nH]c2=O)c(=O)[nH]c1=O    78.5 µM
COc1cc2cc(Oc3ccc(NC(=O)Nc4ccc(Cl)c(C(F)(F)F)c4)cc3)c(C)nc2cc1OC    5.32 µM

-- ask So what TGI did CC(C(=O)c1ccc(Cl)cc1)C1OC(=O)C(Cl)=C1Cl (stereo unspecified) get with HOP-62 NSCLC?
-- reply > 100 µM

-- ask Query COc1cc(Cl)c2c3c(c(C(=O)c4ccccc4)oc13)CCC2 next
-- reply > 100 µM

-- ask Now try COc1ccc2c(c1)CC[C@@H]1C2CC[C@]2(C)C(=O)N(N)C(=O)CC12 (stereo partly specified) .
-- reply > 100 µM

-- ask # iterate: CC(=O)OC1CCC2(C)C(=CCC3C4CCC5(OC6CC(C)CN(C(C)=O)C6C5C)C(C)=C4C(=O)C32)C1 (stereo unspecified)
-- reply 46.4 µM

-- ask Same question for COc1cc(C)c(C)c(OC(=O)c2c(C)c(C)c(OC)c(C)c2OC)c1C please.
-- reply > 100 µM

-- ask Field entry: CC(=O)c1sc(Nc2ccc(Cl)c(Cl)c2)nc1C
-- reply > 100 µM

-- ask Let us now turn to CCOC(=O)C(=O)NCCCN1CCOCC1
-- reply > 100 µM

-- ask Another compound to look at: O=c1c2ccccc2nc(-c2ccccc2)n1O
-- reply 37.4 µM

-- ask Entry to check: COC(=O)c1ccccc1NC(=O)C(=O)CC(=O)CC(c1ccccc1)c1c(O)c2ccccc2oc1=O (stereo unspecified)
-- reply > 100 µM
